Listing of recorded inhibition at 10 µM by entry.
# study_system: α1G T-type Ca^2+ channel (Homo sapiens)
# Construct: expressed in transfected cells; host or cells: HEK293 cells, G-418 selected
# Sequence (O43497 whole entry): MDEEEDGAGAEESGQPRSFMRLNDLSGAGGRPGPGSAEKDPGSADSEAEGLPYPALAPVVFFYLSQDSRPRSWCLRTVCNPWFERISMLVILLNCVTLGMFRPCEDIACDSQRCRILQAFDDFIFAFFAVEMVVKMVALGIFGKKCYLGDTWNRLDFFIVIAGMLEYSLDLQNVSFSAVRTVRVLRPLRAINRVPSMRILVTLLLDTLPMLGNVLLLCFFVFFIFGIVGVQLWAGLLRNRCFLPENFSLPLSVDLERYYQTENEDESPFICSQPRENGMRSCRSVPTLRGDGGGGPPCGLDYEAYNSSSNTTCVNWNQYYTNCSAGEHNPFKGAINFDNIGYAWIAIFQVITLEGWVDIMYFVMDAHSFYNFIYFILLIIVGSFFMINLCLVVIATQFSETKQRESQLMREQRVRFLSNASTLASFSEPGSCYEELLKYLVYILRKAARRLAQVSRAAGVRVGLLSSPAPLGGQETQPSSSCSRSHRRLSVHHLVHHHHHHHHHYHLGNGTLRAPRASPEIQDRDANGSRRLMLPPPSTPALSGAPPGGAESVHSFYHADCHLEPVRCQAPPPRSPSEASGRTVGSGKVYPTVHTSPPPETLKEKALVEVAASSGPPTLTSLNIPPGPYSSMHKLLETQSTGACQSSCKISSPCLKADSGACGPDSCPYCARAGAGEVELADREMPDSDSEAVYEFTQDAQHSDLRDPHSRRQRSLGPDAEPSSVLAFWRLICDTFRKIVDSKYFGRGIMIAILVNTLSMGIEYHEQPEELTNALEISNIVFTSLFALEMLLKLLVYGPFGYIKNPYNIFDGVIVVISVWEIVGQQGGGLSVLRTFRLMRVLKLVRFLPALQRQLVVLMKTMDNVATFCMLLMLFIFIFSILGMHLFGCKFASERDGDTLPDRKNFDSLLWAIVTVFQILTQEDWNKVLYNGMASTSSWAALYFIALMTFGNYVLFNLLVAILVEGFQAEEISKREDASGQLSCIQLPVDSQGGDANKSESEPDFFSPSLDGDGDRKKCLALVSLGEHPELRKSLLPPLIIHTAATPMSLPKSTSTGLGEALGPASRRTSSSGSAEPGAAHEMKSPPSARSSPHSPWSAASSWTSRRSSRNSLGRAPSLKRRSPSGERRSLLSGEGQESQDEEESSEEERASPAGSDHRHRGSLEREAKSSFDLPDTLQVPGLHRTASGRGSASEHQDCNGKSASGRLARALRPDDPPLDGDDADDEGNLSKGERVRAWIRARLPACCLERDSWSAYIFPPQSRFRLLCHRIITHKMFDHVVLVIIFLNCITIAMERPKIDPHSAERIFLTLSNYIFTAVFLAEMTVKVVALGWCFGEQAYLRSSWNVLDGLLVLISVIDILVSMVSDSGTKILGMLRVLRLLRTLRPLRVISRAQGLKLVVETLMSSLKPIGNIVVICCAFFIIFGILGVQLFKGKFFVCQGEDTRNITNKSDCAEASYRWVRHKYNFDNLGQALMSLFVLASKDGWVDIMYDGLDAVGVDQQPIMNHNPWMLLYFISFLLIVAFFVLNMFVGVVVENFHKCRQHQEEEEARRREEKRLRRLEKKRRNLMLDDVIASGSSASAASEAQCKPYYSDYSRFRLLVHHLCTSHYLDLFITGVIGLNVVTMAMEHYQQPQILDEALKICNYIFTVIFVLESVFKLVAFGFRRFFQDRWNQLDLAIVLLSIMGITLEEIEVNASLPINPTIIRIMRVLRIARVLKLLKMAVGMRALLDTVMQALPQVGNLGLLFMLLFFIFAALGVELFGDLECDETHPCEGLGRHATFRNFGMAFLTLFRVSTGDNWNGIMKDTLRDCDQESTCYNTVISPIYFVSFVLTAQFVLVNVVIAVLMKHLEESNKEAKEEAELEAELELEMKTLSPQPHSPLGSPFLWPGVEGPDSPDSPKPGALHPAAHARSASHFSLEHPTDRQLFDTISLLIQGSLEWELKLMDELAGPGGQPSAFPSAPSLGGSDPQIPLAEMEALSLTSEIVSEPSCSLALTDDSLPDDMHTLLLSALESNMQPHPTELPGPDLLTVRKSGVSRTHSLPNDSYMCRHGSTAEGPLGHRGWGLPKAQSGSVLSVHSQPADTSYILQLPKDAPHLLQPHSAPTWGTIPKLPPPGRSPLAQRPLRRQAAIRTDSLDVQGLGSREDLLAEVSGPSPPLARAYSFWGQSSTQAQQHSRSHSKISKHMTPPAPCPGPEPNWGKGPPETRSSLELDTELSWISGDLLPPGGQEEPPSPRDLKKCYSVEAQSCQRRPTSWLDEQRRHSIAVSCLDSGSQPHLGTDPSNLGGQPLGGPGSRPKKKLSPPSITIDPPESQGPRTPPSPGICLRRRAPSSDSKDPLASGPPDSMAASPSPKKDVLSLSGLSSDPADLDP
# assay: T-type Ca2+ channel blocking activity in HEK293 cells, whole-cell patch clamp
# Assay type: cell-based
# particulars: 10 μM (0.1% DMSO); peak current, HEK293 cells expressing α1G

Req: I'm curious: which inhibition at 10 µM was measured for `CCCc1cc(CNCCN2CCN(c3cccc(C)c3C)CC2)nn1-c1ccccc1` tested on α1G T-type Ca^2+ channel (Homo sapiens)?
Resp: 95.9%

Req: Could you do the same for `COc1ccc(N2CCN(CCNCc3cc(C)n(-c4ccccc4)n3)CC2)cc1` , please?
Resp: 53%

Req: Could you do the same for `CCCc1cc(CNCCN2CCN(c3ccccc3)CC2)nn1-c1ccccc1` , please?
Resp: 94.5%

Req: Could you do the same for `CCCc1cc(CNCCN2CCN(c3ccccc3F)CC2)nn1-c1ccccc1` , please?
Resp: 93.8%

Req: Could you do the same for `CC(C)Cc1cc(CNCCN2CCN(c3ccc([N+](=O)[O-])cc3)CC2)nn1-c1ccccc1` , please?
Resp: 94.8%

Req: Could you do the same for Cc1cc(CNCCN2CCN(C(c3ccccc3)c3ccc(Cl)cc3)CC2)nn1-c1ccccc1 (centres unmarked) , please?
Resp: 79.2%

Req: Could you do the same for `CCCc1cc(CNCCN2CCN(C(c3ccccc3)c3ccccc3)CC2)nn1-c1ccccc1` , please?
Resp: 92.4%

Req: Could you do the same for `Cc1cccc(N2CCN(CCNCc3cc(CC(C)C)n(-c4ccccc4)n3)CC2)c1C` , please?
Resp: 92.7%

Cited source: patent US7544686B2
